Test: Solubility pH 7
Details: pH 7, aqueous buffer
experimental.readout: solubility (µg/mL)

Examples from the recorded data:
{"smiles.string": "COc1ccc(C[C@H](NC(=O)[C@@H](C)NC(=O)[C@H]2CC[C@@H](O)C2)C(=O)N[C@@H](CC2CCCC2)C(=O)[C@@]2(C)CO2)cc1", "solubility, µg/mL": 1650}
{"smiles.string": "COc1ccc(C[C@H](NC(=O)[C@@H](CO)NC(=O)CN2CCOCC2)C(=O)N[C@@H](Cc2ccccc2)C(=O)[C@@]2(C)CO2)cc1", "solubility, µg/mL": 3030}
{"smiles.string": "COc1ccc(C[C@H](NC(=O)[C@@H](C)NC(=O)[C@H]2CC[C@@](C)(O)CC2)C(=O)N[C@@H](CC2=CCCC2)C(=O)[C@@]2(C)CO2)cc1", "solubility, µg/mL": 1410}
{"smiles.string": "COc1ccc(C[C@H](NC(=O)[C@@H](NC(=O)CN2CCOCC2)C(F)(F)F)C(=O)N[C@@H](CC2=CCCC2)C(=O)[C@@]2(C)CO2)cc1", "solubility, µg/mL": 159}
{"smiles.string": "C[C@H](NC(=O)CN1CCOCC1)C(=O)N[C@@H](Cc1ccccn1)C(=O)N[C@@H](Cc1ccccc1)C(=O)[C@@]1(C)CO1", "solubility, µg/mL": 2090}
{"smiles.string": "C[C@H](NC(=O)CN1CCOCC1)C(=O)N[C@@H](Cc1ccc2c(c1)OCO2)C(=O)N[C@@H](CC1CCCC1)C(=O)[C@H]1CO1", "solubility, µg/mL": 1380}

a. C[C@H](NC(=O)CN1CCOCC1)C(=O)N[C@@H](Cc1cccnc1)C(=O)N[C@@H](Cc1ccccc1)C(=O)[C@@]1(C)CO1
b. COc1ccc(C[C@H](NC(=O)[C@@H](C)NC(=O)[C@H]2CC[C@@H](O)CC2)C(=O)N[C@@H](Cc2ccccc2)C(=O)[C@@]2(C)CO2)cc1
c. CC[C@H](NC(=O)CN1CCOCC1)C(=O)N[C@@H](Cc1ccc(OC)cc1)C(=O)N[C@@H](CC1CCCC1)C(=O)[C@@]1(C)CO1
Falling order of solubility, please. Rank the items, then write their labels in that order.
a, c, b

1. COc1ccc(C[C@H](NC(=O)[C@H](C)NC(=O)CN2CCOCC2)C(=O)N[C@@H](CC2CC2)C(=O)[C@@]2(C)CO2)cc1
2. C[C@H](NC(=O)CN1CCOCC1)C(=O)N[C@@H](CC1CC1)C(=O)N[C@@H](Cc1ccccc1)C(=O)[C@@]1(C)CO1
Among 1 and 2 , which shows a numerically higher solubility result? Field: selected label. Fill in the label of the entry you choose.
1
(1: 2590 µg/mL, 2: 257 µg/mL)
